Assay: log D7.4 estimation by HPLC-based method
Format: physicochemical
Settings: HPLC, Phenomenex Luna 5 μm Phenyl-Hexyl column, pH 7.4, HPLC, calibration B1; read-out: logD7.4
Measurement Label: chromatographic logD
Answer with a number only.

Sample records with chromatographic logD:
{"Molecule": "CCOC(=O)Nc1ccc(NCc2ccc(F)cc2)nc1N [compound 1, flupirtine, reference compound]", "chromatographic logD": 2.06}
{"Molecule": "Cc1cc(N2CCOCC2)nc(N)c1CNC(=O)Cc1cc(F)cc(F)c1 [compound 61]", "chromatographic logD": 2.58}
{"Molecule": "Cc1cc(N2CCOCC2)nc(N2CCOCC2)c1CNC(=O)c1ccc(F)cc1 [55a]", "chromatographic logD": 3.46}
{"Molecule": "Cc1cc(N2CCOCC2)nc(N2CCOCC2)c1CNC(=O)Cc1cc(F)cc(F)c1 [55b]", "chromatographic logD": 3.53}
{"Molecule": "COc1nc(NCc2ccc(F)cc2)cc(C)c1C(=O)NCc1ccc(F)cc1 [36b]", "chromatographic logD": 4.09}
{"Molecule": "CCCCNC(=O)c1c(C)cc(NCc2ccc(F)cc2)nc1OC [36a]", "chromatographic logD": 3.66}

Kindly consider the entry below.
Which measured chromatographic logD value corresponds to CCCCNC(=O)c1ccc(NCc2ccc(F)cc2)nc1N [compound 21] ?
2.86

====

Test: log D7.4 estimation by HPLC-based method
Assay type: physicochemical
Conditions: HPLC, Phenomenex Luna 5 μm Phenyl-Hexyl column, pH 7.4, HPLC, mean of two calibrations; read-out: logD7.4 (mean)
Measurement Label: chromatographic logD
No unit in the answer, only the number.

{"Compound": "CC(C)CNC(=O)c1ccc(NCc2ccc(F)cc2)cc1N", "Measurement Label": "chromatographic logD", "Reading": 2.7}
{"Compound": "Cc1cc(N2CCOCC2)nc(N2CCOCC2)c1CNC(=O)Cc1cc(F)cc(F)c1 [55b]", "Measurement Label": "chromatographic logD", "Reading": 3.5}

Would you mind telling me what chromatographic logD value was observed for COc1cc(NCc2ccc(F)cc2)ccc1C(=O)NCc1ccc(F)cc1 [28b] ?
4.3

chromatographic logD for CCCCNC(=O)c1c(C)cc(NCc2ccc(F)cc2)nc1OC [36a] ?
3.7

What value of chromatographic logD has been reported for the following compound? CCCCNC(=O)c1ccc(NCc2ccc(F)cc2)nc1N
2.9

====

Experiment: log D7.4 estimation by HPLC-based method
Assay type: physicochemical
Settings: HPLC, Phenomenex Luna 5 μm Phenyl-Hexyl column, pH 7.4, HPLC, calibration A1; read-out: logD7.4
Please assign n whenever chromatographic logD is at or above 3, and y whenever it is below.

Before answering, review these 5 worked examples.
{"Compound": "CCCCNC(=O)c1ccc(NCc2ccc(F)cc2)nc1N", "Label Class": "y"}
{"Compound": "CCCCNC(=O)c1c(C)cc(NCc2ccc(F)cc2)nc1OC [36a]", "Label Class": "n"}
{"Compound": "COc1nc(NCc2ccc(F)cc2)cc(C)c1C(=O)NCc1ccc(F)cc1 [36b]", "Label Class": "n"}
{"Compound": "Cc1cc(N2CCOCC2)nc(N2CCOCC2)c1CNC(=O)Cc1cc(F)cc(F)c1 [55b]", "Label Class": "n"}
{"Compound": "Cc1cc(N2CCOCC2)nc(N2CCOCC2)c1CNC(=O)c1ccc(F)cc1 [55a]", "Label Class": "n"}

Dear reviewer, please state whether CCOC(=O)Nc1ccc(NCc2ccc(F)cc2)nc1N [compound 1, flupirtine, reference compound] has chromatographic logD strictly beneath 3.
y

hey, is chromatographic logD for Cc1cc(N2CCOCC2)nc(N)c1CNC(=O)Cc1cc(F)cc(F)c1 lower than 3 or not?
y

// provenance: paper PMC8908504
